All figures here come from patent US11358987B2.

system: S. typhimurium TA100; assay: Microdilution assay, MIC determination (CLSI M07-A9); format: cell-based; settings: Salmonella enterica; S. typhimurium TA100; 37° C., 20 h, MHBII media; read-out: MIC
experimentalEndpoint: MIC (µg/mL)

[[record]]
molecule = "COc1nc(C(=O)O)ccc1NC(=O)c1ccc(NC(=O)c2ccc(NC(=O)C(Cc3cnn[nH]3)NC(=O)c3ccc(NC(=O)/C(C)=C/c4ccc(O)cc4)cc3)cc2)c(OC)c1O (centres unmarked)"
experimentalendpoint = "MIC"
resultmodifier = "="
experimentalvalue = 250

[[record]]
molecule = "C/C(=C\\c1ccc(O)cc1)C(=O)Nc1ccc(C(=O)N[C@@H](Cc2c[nH]nn2)C(=O)Nc2ccc(C(=O)Nc3ccc(C(=O)Nc4ccc(C(=O)O)cc4)c(O)c3OC(C)C)nc2)cc1"
experimentalendpoint = "MIC"
resultmodifier = "≤"
experimentalvalue = 16

[[record]]
molecule = "COc1c(NC(=O)c2ccc(NC(=O)c3ccc(NC(=O)C(Cc4cnn[nH]4)NC(=O)c4ccc(NC(=O)c5ccc(C#N)cc5)cn4)cn3)c(OC)c2O)ccc(C(=O)O)c1O (centres unmarked)"
experimentalendpoint = "MIC"
resultmodifier = "="
experimentalvalue = 4000

[[record]]
molecule = "COc1c(NC(=O)c2ccc(NC(=O)C(Cc3cnn[nH]3)NC(=O)c3ccc(NC(=O)/C(C)=C/c4ccc(O)cc4)cn3)cc2)ccc(C(=O)Nc2ccc(C(=O)O)c(O)c2OCCO)c1O (centres unmarked)"
experimentalendpoint = "MIC"
resultmodifier = "="
experimentalvalue = 31

[[record]]
molecule = "COc1nc(C(=O)Nc2ccc(C(=O)O)nc2OC)ccc1NC(=O)c1ccc(NC(=O)[C@H](Cc2c[nH]nn2)NC(=O)c2ccc(NC(=O)/C(C)=C/c3ccc(O)cc3)cc2)cc1"
experimentalendpoint = "MIC"
resultmodifier = "="
experimentalvalue = 500

